Target: Caspase-3 (Homo sapiens)
Assay: activators of human procaspase-3 D3A mutant – biochemical, absorbance, PC-3 D3A mutant, powder samples, counter-screen for dual procaspase-3/7 activator project, late-stage follow-up (AID 504824)
Conditions: recombinant PC-3 D3A, Ac-DEVD-pNA absorbance 405 nm
Calls of active or inactive are those of the source.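 How the source made its calls: active means compound reaching half of full procaspase-3 activation at 10 µM or lower; inactive means the rest.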
Reported values of EC50 for individual entries

# Compound, EC50
records = [
    ("Cc1[nH]nc2c1C(c1c[nH]c3ccccc13)C(C#N)=C(N)O2 (stereo not given)", "3.62 µM"),
    ("O=C(Nc1ccc(Cc2ccncc2)cc1)C1CCC(N2C(=O)C3C4C=CC(C5CC45)C3C2=O)CC1 (stereo not given)", "> 85.3 µM (inactive)"),
    ("O=C(C1=NN(c2ccccc2)C2C(=O)N(c3ccccc3)C(=O)C12)c1ccccc1 (stereo not given)", "> 85.3 µM (inactive)"),
    ("COC(=O)C1=NN(c2ccc(Cl)cc2)C2C(=O)N(c3ccccc3OC)C(=O)C12 (stereo not given)", "> 85.3 µM (inactive)"),
    ("COc1ccccc1N1C(=O)C2C(C(=O)c3ccccc3)=NN(c3ccccc3)C2C1=O (stereo not given)", "> 85.3 µM (inactive)"),
]
